Tested on: HL-60(TB) leukemia
test.summary: NCI-60 one-dose screen, 48 h (100 = growth as untreated, 0 = no growth, -100 = all killed)
test.context: 10 µM unless noted
This is part of a sample that, as a whole, favours compounds with a hit. Of some 83,000 tested, about 20% had one in any assay. Active and inactive are the calls of the source. How the source made its calls: active means growth percent below 10; inactive means the rest.
Answer each item with its documented growth.

[Q] Find the measured growth: item C#CCN(C)CCCOc1ccc(N(C)C(=O)c2cc(C(C)C)c(O)cc2O)cc1Cl , target or system HL-60(TB) leukemia.
[A] -40.7% (active)

[Q] Find the measured growth: item COc1ccc(/C=C/C(=O)c2ccc(S(=O)(=O)NCCNc3nc(Nc4ccc(F)cc4)nc(N(C)C)n3)cc2)cc1 , target or system HL-60(TB) leukemia.
[A] 17.2% (inactive)

[Q] Find the measured growth: item O=C(N/N=C/c1ccc(-c2ccc(O)cc2)s1)c1[nH]c2ccc(Br)cc2c1-c1ccccc1 , target or system HL-60(TB) leukemia.
[A] -12.4% (active)

[Q] Find the measured growth: item CN1C(=O)N(C)C2SC(N/N=C/c3cccs3)=NC21 (centres undefined) , target or system HL-60(TB) leukemia.
[A] -19.5% (active)

[Q] Find the measured growth: item CCOC(=O)c1ccc(NC(=S)NC(=O)c2ccc(NC(=O)C(C)C)cc2OC)cc1 , target or system HL-60(TB) leukemia.
[A] 46.3% (inactive)

[Q] Find the measured growth: item C=C(c1ccc(OC)c(N)c1)c1cc(C)nc2ccccc12 , target or system HL-60(TB) leukemia.
[A] -22.8% (active)

[Q] Find the measured growth: item CCOc1ccc(C(=O)NC(=S)Nc2ccc(S(N)(=O)=O)cc2)cc1 , target or system HL-60(TB) leukemia.
[A] 103% [100 µM] (inactive)

[Q] Find the measured growth: item COC[C@@H](CC(C)C)N=C1N/C(=C\c2ccc3ncsc3c2)C(=O)N1C , target or system HL-60(TB) leukemia.
[A] -1.54% (active)

[Q] Find the measured growth: item O=C(c1ccccc1)C(c1c[nH]c2ccccc12)c1c[nH]c2ccccc12 , target or system HL-60(TB) leukemia.
[A] 53.8% (inactive)

[Q] Find the measured growth: item COc1cc(/C=C/C(=O)c2ccc(NC(=O)CSc3nnc(-c4c[nH]c5ccccc45)n3-c3ccccc3)cc2)cc(OC)c1OC , target or system HL-60(TB) leukemia.
[A] 38.6% (inactive)

[Q] Find the measured growth: item O=C(c1ccc(Cl)cc1)C1[C@H](c2ccccc2Br)[C@@H](c2ccccc2)NC12C(=O)Nc1ccc(Br)cc12 (some centres undefined) , target or system HL-60(TB) leukemia.
[A] -6.61% (active)

[Q] Find the measured growth: item CCOC(=O)/C(F)=C/C1CC1C1CCN(C(=O)OC(C)(C)C)CC1 (centres undefined) , target or system HL-60(TB) leukemia.
[A] 102% (inactive)

[Q] Find the measured growth: item Clc1ccc2c(NCCNC34CC5CC(CC(C5)C3)C4)ccnc2c1 , target or system HL-60(TB) leukemia.
[A] -53.1% (active)

[Q] Find the measured growth: item COc1ccc(N=Nc2c(N)nn3c(-c4ccc(F)cc4)ccnc23)cc1 , target or system HL-60(TB) leukemia.
[A] 95.3% (inactive)
